- SYSTEM NAME: intracellular kinase domain of human IGF-1R (GST fusion protein) (Homo sapiens, UniProt P08069)
- Construct: intracellular kinase domain of human IGF-1R and expressed as GST fusion proteins; GST
- Sequence (P08069 999-1274 limits assumed): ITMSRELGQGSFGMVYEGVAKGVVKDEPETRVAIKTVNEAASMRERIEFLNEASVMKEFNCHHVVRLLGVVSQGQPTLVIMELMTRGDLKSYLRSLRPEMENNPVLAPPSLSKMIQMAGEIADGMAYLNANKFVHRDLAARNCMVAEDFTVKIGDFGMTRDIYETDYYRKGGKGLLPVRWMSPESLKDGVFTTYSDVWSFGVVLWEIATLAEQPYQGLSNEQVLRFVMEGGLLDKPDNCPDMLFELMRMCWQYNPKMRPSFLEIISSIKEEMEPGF
- METHOD DESCRIPTION: In vitro IGF-1R kinase assay (HTRF)
- CONDITION CONTEXT: ATP 20 μM, IGFRK 0.25 nM, read-out: IC50 IGF-1R enzyme
MEASUREMENT TYPE: pIC50
Worth noting: pIC50 values are minus log10 of concentrations stated in mol/L.

**Q:** Which value of pIC50 has been reported for CCOC(=O)N1CCC(Nc2cc(Cl)cc3c(S(=O)(=O)N4CCO[C@H](COc5ccccc5)C4)c(C(N)=O)[nH]c23)CC1 [Compound I (crystalline form)] in the records?
**A:** 7.66

Ref: patent US20140045847A1
